Each entry below carries its reported koff.
Target: T1, ECD of rec. EGFR (human, UniProt P00533 25-645)
T1 construct: extracellular domain; also called human epidermal factor receptor (EGFR)
Test: SPR (BIAcore), chip coated with ECD of rec. EGFR
Just the number in s⁻¹, nothing appended.

// query koff value for entry Humanized LA22 (H3 + h2) (antibody, V domains shown, also called hLA22; hLA22 h2H3) VH: EVQLVESGGGLVQPGGSLRLSCASNEYEFPSHDMSWVRQTPGKGLEWVSAITSDGISTYYPDTMERRFTISRDNSKNTLYLQMSSLRAEDTAVYYCARHDWDEGFASWGQGTLVTVSS VL: DVVMTQSPLSLPVTLGQPASISCRSSQSLVHSNGNTYLHWYQQRPGQSPRLLIYKVSNRFSGVPDRFSGSGSGTDFTLKISRVEAEDVGIYFCSQSSHVPPAFGGGTKLEIK
3.8e-05

Can you look up the measured koff of Humanized LA22 (H0 + h2) (antibody, human IgG1, V domains shown, Human IgG1 / kappa constant regions; also called HO-LA22 / h2-LA22) VH: EVQLVESGGGLVQPGGSLRLSCAASEYEFPSHDMSWVRQAPGKGLEWVSAITSDGISTYYPDTMERRFTISRDNSKNTLYLQMNSLRAEDTAVYYCARHDWDEGFASWGQGTLVTVSS VL: DVVMTQSPLSLPVTLGQPASISCRSSQSLVHSNGNTYLHWYQQRPGQSPRLLIYKVSNRFSGVPDRFSGSGSGTDFTLKISRVEAEDVGIYFCSQSSHVPPAFGGGTKLEIK for me?
6.9e-05
